What K was measured for each of the following?
Molecular target: Calpain-1 catalytic subunit (Homo sapiens)
Sequence (whole entry): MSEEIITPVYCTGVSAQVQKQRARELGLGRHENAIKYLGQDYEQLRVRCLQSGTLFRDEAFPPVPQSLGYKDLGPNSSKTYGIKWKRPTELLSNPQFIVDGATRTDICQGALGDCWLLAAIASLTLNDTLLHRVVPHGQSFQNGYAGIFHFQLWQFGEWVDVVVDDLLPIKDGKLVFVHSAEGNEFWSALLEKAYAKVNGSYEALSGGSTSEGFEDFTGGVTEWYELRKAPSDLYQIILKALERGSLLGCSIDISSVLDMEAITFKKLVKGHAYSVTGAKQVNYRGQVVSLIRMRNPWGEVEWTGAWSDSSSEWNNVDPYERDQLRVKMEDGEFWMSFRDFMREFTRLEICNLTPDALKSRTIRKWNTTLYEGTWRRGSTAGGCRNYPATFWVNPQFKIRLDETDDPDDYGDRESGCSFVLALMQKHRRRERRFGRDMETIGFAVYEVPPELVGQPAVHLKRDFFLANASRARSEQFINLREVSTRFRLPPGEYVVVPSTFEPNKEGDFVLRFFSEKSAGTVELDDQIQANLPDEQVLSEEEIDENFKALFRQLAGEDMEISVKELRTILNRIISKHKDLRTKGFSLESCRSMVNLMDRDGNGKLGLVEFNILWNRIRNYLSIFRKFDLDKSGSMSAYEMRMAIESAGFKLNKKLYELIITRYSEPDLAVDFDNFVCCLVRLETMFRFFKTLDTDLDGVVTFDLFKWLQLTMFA
Experiment: Inhibition of Calpain-I receptor
Non-standard residues stand in square brackets, D forms with d. Residues, ends and D or L forms follow the SMILES beside them. ξ: configuration not given here. *: point of attachment. ξF = NC(Cc1ccccc1)C(=O)O; Cbz = O=C(OCc1ccccc1)*; ξL = CC(C)CC(N)C(=O)O; ξAbu = CCC(N)C(=O)O; CH2F = FC*
Form field: result (number plus unit)

CC(C)CC(NC(=O)OCc1ccccc1)C(=O)N[C@@H](CC(C)C)C(=O)NC(Cc1ccccc1)C(=O)CF (some centres undefined) (Cbz-[ξL]-Leu-[ξF]-CH2F) has a reported K of 290000 M⁻¹ s⁻¹

CC(C)C[C@H](NS(=O)(=O)N1CCOCC1)C(=O)NC(Cc1ccccc1)C(=O)CF (some centres undefined) has a reported K of 67200 M⁻¹ s⁻¹

CCC(NC(=O)[C@H](CC(C)C)NC(=O)OCc1ccccc1)C(=O)CF (stereo partly drawn) (Cbz-Leu-[ξAbu]-CH2F) has a reported K of 24200 M⁻¹ s⁻¹

CC(C)[C@H](NC(=O)OCc1ccccc1)C(=O)NC(Cc1ccccc1)C(=O)CF (stereo partly drawn) (Cbz-Val-[ξF]-CH2F) has a reported K of 35000 M⁻¹ s⁻¹

====

Molecular target: Calpain-1 catalytic subunit (Homo sapiens) (UniProt P07384)
Assay: Inhibition of Calpain-I receptor
Starred links: 1 amine or outer side, 2 acyl side, 3 side chain; linkers in the order of their positions; H or OH if unused. Non-standard residues stand in square brackets, D forms with d. Residues, ends and D or L forms follow the SMILES beside them. ξ: configuration not given here. *: point of attachment. Hydrocinnamoyl = O=C(CCc1ccccc1)*; ξF = NC(Cc1ccccc1)C(=O)O; Cbz = O=C(OCc1ccccc1)*; Boc = CC(C)(C)OC(=O)*; CO = O=C([*:1])[*:2]; NHBn = c1ccc(CN*)cc1; ξS = NC(CO)C(=O)O; CH2F = FC*
property.name: K
Form field: result (number plus unit)

CC(C)C[C@H](NC(=O)OCc1ccccc1)C(=O)NC(Cc1ccccc1)C(=O)CF (stereo partly drawn) (Cbz-Leu-[ξF]-CH2F) has a reported K of 136000 M⁻¹ s⁻¹

CC(C)C[C@H](NC(=O)OC(C)(C)C)C(=O)NC(Cc1ccccc1)C(=O)CF (stereo partly drawn) (Boc-Leu-[ξF]-CH2F) has a reported K of 68600 M⁻¹ s⁻¹

CC(C)C[C@H](N)C(=O)N[C@@H](Cc1ccccc1)C(=O)CF (H-Leu-Phe-CH2F) has a reported K of 8000 M⁻¹ s⁻¹

CC(C)C[C@H](NC(=O)NCc1ccccc1)C(=O)NC(Cc1ccccc1)C(=O)CF (stereo partly drawn) ({NHBn-CO}-Leu-[ξF]-CH2F) has a reported K of 67000 M⁻¹ s⁻¹

CC(C)C[C@H](NC(=O)OCc1ccccc1)C(=O)NC(COC1CCCCO1)C(=O)CF (stereo partly drawn) has a reported K of 100000 M⁻¹ s⁻¹

CC(C)C[C@H](NC(=O)CCc1ccccc1)C(=O)NC(Cc1ccccc1)C(=O)CF (stereo partly drawn) (Hydrocinnamoyl-Leu-[ξF]-CH2F) has a reported K of 26600 M⁻¹ s⁻¹

CC(C)C[C@H](NC(=O)[C@H]1O[C@@H]1C(=O)O)C(=O)NCCCCN=C(N)N has a reported K of 4700 M⁻¹ s⁻¹

CC(C)C[C@H](NC(=O)OCc1ccccc1)C(=O)NC(CO)C(=O)CF (stereo partly drawn) (Cbz-Leu-[ξS]-CH2F) has a reported K of 21000 M⁻¹ s⁻¹

====

Biological target: Cathepsin B (Homo sapiens) (UniProt P07858)
Test: Compound was tested for inhibitory against cathepsin B
Non-standard residues stand in square brackets, D forms with d. Residues, ends and D or L forms follow the SMILES beside them. ξ: configuration not given here. *: point of attachment. Hydrocinnamoyl = O=C(CCc1ccccc1)*; ξF = NC(Cc1ccccc1)C(=O)O; Cbz = O=C(OCc1ccccc1)*; ξL = CC(C)CC(N)C(=O)O; ξAbu = CCC(N)C(=O)O; ξS = NC(CO)C(=O)O; CH2F = FC*
Would you mind classing the entries by K? Ranges: lo (below 300 M⁻¹ s⁻¹), mid (300 M⁻¹ s⁻¹ to below 9000 M⁻¹ s⁻¹), hi (9000 M⁻¹ s⁻¹ or more)

Req: Input CC(C)CC(NC(=O)OCc1ccccc1)C(=O)N[C@@H](CC(C)C)C(=O)NC(Cc1ccccc1)C(=O)CF (some centres undefined) (Cbz-[ξL]-Leu-[ξF]-CH2F) ; output its category
Resp: mid

Req: Input CC(C)C[C@H](N)C(=O)N[C@@H](Cc1ccccc1)C(=O)CF (H-Leu-Phe-CH2F) ; output its category
Resp: lo

Req: Input CC(C)[C@H](NC(=O)OCc1ccccc1)C(=O)NC(Cc1ccccc1)C(=O)CF (stereo partly drawn) (Cbz-Val-[ξF]-CH2F) ; output its category
Resp: mid

Req: Input CC(C)C[C@H](NS(=O)(=O)N1CCOCC1)C(=O)NC(Cc1ccccc1)C(=O)CF (some centres undefined) ; output its category
Resp: lo

Req: Input CCC(NC(=O)[C@H](CC(C)C)NC(=O)OCc1ccccc1)C(=O)CF (stereo partly drawn) (Cbz-Leu-[ξAbu]-CH2F) ; output its category
Resp: hi

Req: Input CC(C)C[C@H](NC(=O)OCc1ccccc1)C(=O)NC(CO)C(=O)CF (stereo partly drawn) (Cbz-Leu-[ξS]-CH2F) ; output its category
Resp: hi

Req: Input CC(C)C[C@H](NC(=O)CCc1ccccc1)C(=O)NC(Cc1ccccc1)C(=O)CF (some centres undefined) (Hydrocinnamoyl-Leu-[ξF]-CH2F) ; output its category
Resp: mid

====

What K was measured for each of the following?
Molecular target: UniProt P07711
Sequence (P07711 114-333 limits assumed): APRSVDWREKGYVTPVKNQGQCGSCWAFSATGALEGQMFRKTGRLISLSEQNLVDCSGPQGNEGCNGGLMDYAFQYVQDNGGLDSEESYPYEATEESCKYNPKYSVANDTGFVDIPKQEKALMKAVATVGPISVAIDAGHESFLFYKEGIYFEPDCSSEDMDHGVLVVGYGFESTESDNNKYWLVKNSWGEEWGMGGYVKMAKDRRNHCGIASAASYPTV
Assay: Compound was tested for inhibitory against cathepsin L
Non-standard residues stand in square brackets, D forms with d. Residues, ends and D or L forms follow the SMILES beside them. ξ: configuration not given here. *: point of attachment. Hydrocinnamoyl = O=C(CCc1ccccc1)*; ξF = NC(Cc1ccccc1)C(=O)O; Cbz = O=C(OCc1ccccc1)*; Boc = CC(C)(C)OC(=O)*; ξL = CC(C)CC(N)C(=O)O; ξAbu = CCC(N)C(=O)O; ξS = NC(CO)C(=O)O; CH2F = FC*
// return numeric value only (unit: M⁻¹ s⁻¹, not printed)

CC(C)C[C@H](N)C(=O)N[C@@H](Cc1ccccc1)C(=O)CF (H-Leu-Phe-CH2F) has a reported K of 250

CC(C)C[C@H](NC(=O)N1CCc2ccccc2C1)C(=O)NC(Cc1ccccc1)C(=O)CF (stereo not given in full) has a reported K of 48400

CC(C)CC(NC(=O)OCc1ccccc1)C(=O)N[C@@H](CC(C)C)C(=O)NC(Cc1ccccc1)C(=O)CF (stereo not given in full) (Cbz-[ξL]-Leu-[ξF]-CH2F) has a reported K of 256000

CC(C)C[C@H](NC(=O)CCc1ccccc1)C(=O)NC(Cc1ccccc1)C(=O)CF (stereo not given in full) (Hydrocinnamoyl-Leu-[ξF]-CH2F) has a reported K of 800

CC(C)C[C@H](NC(=O)OC(C)(C)C)C(=O)NC(Cc1ccccc1)C(=O)CF (stereo partly drawn) (Boc-Leu-[ξF]-CH2F) has a reported K of 100

CC(NC(=O)[C@H](Cc1ccccc1)NC(=O)OCc1ccccc1)C(=O)CF (stereo not given in full) has a reported K of 110000

CC(C)[C@H](NC(=O)OCc1ccccc1)C(=O)NC(Cc1ccccc1)C(=O)CF (stereo partly drawn) (Cbz-Val-[ξF]-CH2F) has a reported K of 21500

CC(C)C[C@H](NC(=O)OCc1ccccc1)C(=O)NC(Cc1ccccc1)C(=O)CF (stereo partly drawn) (Cbz-Leu-[ξF]-CH2F) has a reported K of 5000

CC(C)C[C@H](NC(=O)OCc1ccccc1)C(=O)NC(CO)C(=O)CF (stereo partly drawn) (Cbz-Leu-[ξS]-CH2F) has a reported K of 31000

CCC(NC(=O)[C@H](CC(C)C)NC(=O)OCc1ccccc1)C(=O)CF (stereo partly drawn) (Cbz-Leu-[ξAbu]-CH2F) has a reported K of 64000

Provenance of the data: ChEMBL document CHEMBL1130238
